assay: qHTS assay for small molecule agonists of the p53 signaling pathway - cell viability (AID 651633); conditions: p53RE-bla HCT-116 viability, ATP luminescence, 16 h; series mostly up to 83.3 µM; note: nearly all actives have a fitted effect of over 30% in size
Results filed as inconclusive are left out. The source made the active and inactive calls. Calls come from the whole dose curve.
Output constraint: value belongs to active, inactive

Sample answers from the record:
COMPOUND: COC(=O)C(C)N(C(=O)c1ccco1)c1c(C)cccc1C (stereo unspecified)
LABEL: inactive

COMPOUND: CCC(OC(C)=O)C(CC(C)NC)(c1ccccc1)c1ccccc1 (stereo unspecified)
LABEL: active

Could you please tell me the result logged for Oc1ccc(Cl)c(Cl)c1 in this assay? inactive

Could you please tell me the result logged for CC(C)[C@@H](Nc1ccc(C(F)(F)F)cc1Cl)C(=O)OC(C#N)c1cccc(Oc2ccccc2)c1 (stereo partly specified) in this assay? inactive

Could you please tell me the result logged for [C-]1=CC=CC1.[Cl][Zr+2][Cl].c1cc[cH-]c1 in this assay? inactive

Could you please tell me the result logged for CN1CCc2cc(Cl)c(O)cc2[C@H]2c3ccccc3CC[C@@H]21 in this assay? inactive

###

assay: qHTS RealTime-Glo MT Cell Viability Assay in HEK293 cells - 32 hour (AID 1224868); conditions: RealTime-Glo luminescence; series mostly up to 76.8 µM; note: nearly all actives have a fitted effect of over 50% in size
Results filed as inconclusive are left out. The source made the active and inactive calls. Calls come from the whole dose curve; as a rule, active = well fitted cell-killing curve with a large enough effect in the repeat runs; inconclusive = weak or mixed curves, or effect the other way; inactive = flat fitted curve, though single readings scatter.
Output constraint: value belongs to 1.0 (active), 0.0 (inactive)

MOLECULE: N#Cc1ccc(N(CC(N)=O)CC(F)(F)F)cc1C(F)(F)F
LABEL: 0.0
--
MOLECULE: CC1CN1 (stereo not drawn)
LABEL: 0.0
--
MOLECULE: CN(C)c1ccc(N)cc1
LABEL: 1.0

Could you please tell me the result logged for [F][Sn]([c]1ccccc1)([c]1ccccc1)[c]1ccccc1 in this assay? 1.0

Could you please tell me the result logged for N#CC(C#N)=NNc1cccc(Cl)c1 in this assay? 1.0

Could you please tell me the result logged for CCOC(=O)CCN(SN(C)C(=O)Oc1cccc2c1OC(C)(C)C2)C(C)C in this assay? 0.0

Could you please tell me the result logged for O=c1[nH]c(Cl)c(Cl)cc1Cl in this assay? 0.0

Could you please tell me the result logged for Oc1ccc([C@H]2CNCc3c2ccc(O)c3O)cc1O in this assay? 0.0

Could you please tell me the result logged for CN1C(=O)[C@@H](NC(=O)c2cc3ccccc3[nH]2)N=C(c2ccccc2)c2ccccc21 in this assay? 0.0

Could you please tell me the result logged for COc1nc(C)nc(NC(=O)NS(=O)(=O)c2ccccc2Cl)n1 in this assay? 0.0

Could you please tell me the result logged for CCCCc1ccccc1 in this assay? 0.0

###

test: A CellTox Green Cytotoxicity Assay to monitor cytotoxicity in HepG2 cells - 0 hour (AID 1224882); details: CellTox Green fluorescence; series mostly up to 76.8 µM; note: nearly all actives have a fitted effect of over 35% in size
Calls of active or inactive are those of the source. Calls follow the shape of the dose curve; as a rule, active = well fitted activation curve with a large enough effect in the repeat runs; inconclusive = weak or mixed curves; inactive = flat fitted curve, though single readings scatter.
Output constraint: value belongs to yes (1) = active, no (0) = inactive

Could you please tell me the result logged for FC(F)C(F)(F)OCC(Cn1cncn1)c1ccc(Cl)cc1Cl (stereo not drawn) in this assay? no (0)

###

test: qHTS assay to identify small molecule antagonists of the thyroid receptor (TR) signaling pathway - cell viability counter screen (AID 743064); details: GH3.TRE-Luc viability, CellTiter-Fluor, 24 h; series mostly up to 70.3 µM; note: nearly all actives have a fitted effect of over 50% in size
Inconclusive results are not listed. Activity calls are given as the source filed them. Calls come from the whole dose curve; as a rule, active = well fitted cell-killing curve with a large enough effect in the repeat runs; inconclusive = weak or mixed curves, or effect the other way; inactive = no such curve, though single readings can be large or run the other way.
Output constraint: value belongs to true (1) for active, false (0) for inactive

Sample answers from the record:
MOLECULE: CC(C)c1c(CN(C)C(C)Cc2ccccc2)n(C)n(-c2ccccc2)c1=O (configuration not stated)
LABEL: false (0)

MOLECULE: CCCCCON=O
LABEL: false (0)

MOLECULE: Nc1cc(Cl)ccc1Cl
LABEL: false (0)

MOLECULE: BrCC(Br)(Br)Br
LABEL: false (0)

MOLECULE: CCN(CC)CCN1C(=O)CN=C(c2ccccc2F)c2cc(Cl)ccc21
LABEL: true (1)

MOLECULE: O=[N+]([O-])C(Br)Br
LABEL: false (0)

MOLECULE: CC(=O)O.CC(=O)O.CC(=O)O.CC(=O)O.CC(=O)O.CC(=O)O.CC(=O)O.O.O.[Cr].[Cr].[Cr]
LABEL: false (0)

MOLECULE: COP(=S)(OC)Oc1ccc([N+](=O)[O-])c(C)c1
LABEL: false (0)

Could you please tell me the result logged for Brc1cccc(-c2ccccc2)c1 in this assay? false (0)

Could you please tell me the result logged for CC(O)C(=O)[O][Hg][c]1ccccc1 (configuration not stated) in this assay? true (1)

Could you please tell me the result logged for CNC(=O)Oc1cc(C)cc(C(C)C)c1 in this assay? false (0)

Could you please tell me the result logged for N#CC(C#N)=NNc1cccc(Cl)c1 in this assay? true (1)

Could you please tell me the result logged for CC(C)NCC(O)c1ccccc1Cl (configuration not stated) in this assay? false (0)

Could you please tell me the result logged for O=C(O)CCCCCCNC1c2ccccc2CCc2ccccc21 in this assay? false (0)

Could you please tell me the result logged for Cc1ccccc1OP(=O)(Oc1ccccc1C)Oc1ccccc1C in this assay? true (1)

Could you please tell me the result logged for Cc1cc2c3c(c1)C(c1ccccc1)=N[C@@H](NC(=O)c1ccncc1)C(=O)N3CC2 in this assay? false (0)
